Where do these numbers come from? They come from patent US4096112A.

# Measurement description: Acute toxicity (LD50), oral route, mice
# Format: in vivo
# Measurement parameters: mouse, in vivo, gummy suspension
Would you mind telling me the reported LD50 of each entry?

Okay, here is my list. What is LD50 for each of these?
1. COc1cc(OC)cc(-c2cc3ccccc3[nH]2)c1
2. COc1ccc(-c2cc3ccccc3[nH]2)cc1C(C)C

1. > 2000 mg/kg
2. > 3000 mg/kg

Okay, here is my list. What is LD50 for each of these?
1. COc1cc(-c2cc3ccccc3[nH]2)ccc1O [Stabilizer 2, 2-(3'-methoxy-4'-hydroxy-phenyl)-indole]
2. CCCCCCCCCCCCc1cc(-c2cc3ccccc3[nH]2)ccc1OC

["> 2000 mg/kg", "> 3000 mg/kg"]

---

# Test system: mice
# Measurement description: Maximal dose which does not provoke any death (LD0), oral route, mice
# Type: in vivo
# Measurement parameters: LD0 test
Observed property: Toxic symptoms

COc1ccc(-c2cc3ccccc3[nH]2)cc1OCc1ccccc1 = none
COc1c(C)cc(-c2cc3ccccc3[nH]2)cc1C = none
CCOc1ccc(-c2cc3ccccc3[nH]2)cc1OC = none
COc1cc(-c2cc3ccccc3[nH]2)ccc1OC(C)C = none
